# experiment summary: Intestinal-specific parallel artificial membrane permeability assay (PAMPA-GI)
# Format: in vitro ADME
# cond: gradient pH system (pH donor 6.5 → pH acceptor 7.4) after 4 h, at 37 °C; mean ± S.E.M, n = 3
result type: PAMPA-GI MR (membrane retention) (%)

a: COC(=O)[C@]1(C)CCC[C@@]2(C)C3CC[C@]4(O)C[C@@]3(CCC21)[C@@H](O)[C@]4(O)CN[C@@H](C)c1ccccc1 (stereo partly drawn)
b: COC(=O)[C@]1(C)CCC[C@@]2(C)C3CC[C@]4(O)C[C@@]3(CCC21)[C@@H](O)[C@]4(O)CN (stereo partly drawn)
c: COC(=O)[C@]1(C)CCC[C@@]2(C)C3CC[C@]4(O)C[C@@]3(CCC21)[C@@H](O)[C@]4(O)CN[C@@H](C)c1ccc2ccccc2c1 (stereo partly drawn)
d: C=C1[C@H](O)[C@@]23CC[C@H]4[C@@](C)(CCC[C@@]4(C)C(=O)O)[C@@H]2CC[C@]1(O)C3
Please list these compounds in decreasing order of PAMPA-GI MR (membrane retention). Output spec: labels arranged per the requested ranking. c, a, d, b
(c: 92.6%, a: 42.6%, d: 6.5%, b: 1.5%)

a: CC[C@H](NC[C@@]1(O)[C@H](O)[C@@]23CCC4[C@@](C)(CCC[C@@]4(C)C(=O)OC)C2CC[C@]1(O)C3)c1ccccc1 (stereo partly drawn)
b: COC(=O)[C@]1(C)CCC[C@@]2(C)C3CC[C@]4(O)C[C@@]3(CCC21)[C@@H](O)[C@]4(O)CN[C@H](C)c1ccc2ccccc2c1 (stereo partly drawn)
Smaller PAMPA-GI MR (membrane retention) value, a vs b ? To answer, give the label that identifies your chosen option. a
(a: 44.6%, b: 92.6%)

Numbers sourced from paper PMC9861858.
